- System: CCRF-CEM leukemia
- method-summary: NCI-60 one-dose screen, 48 h (100 = growth as untreated, 0 = no growth, -100 = all killed)
- details: 10 µM unless noted
About 83,000 compounds went through this panel and 20% of them were active in at least one assay; those are over-represented in the sample as a whole.
endpoint: growth (%)

* CC1(C)CCC(S(=O)(=O)c2ccc3c(c2)/C(=N\O)c2cc(S(=O)(=O)N4CCN(c5ccc(F)cc5O)CC4)ccc2-3)CC1 | -63.4
* COc1cc2oc(-c3cccc(NC(=O)c4ccc5c(c4)OCO5)c3)cc(=O)c2c(OC)c1OC | -11.9
* NC(=O)c1c(NC(=O)c2ccc(Cl)cc2)sc2c1CCC(=O)C2 | 7.15
* CS(=O)(=O)Nc1cncc(-c2ccc3ncnc(Nc4ccc(F)c(Cl)c4)c3c2)c1 | 11.8
* COc1ccc(C(c2cc(OC)c(OC)c(OC)c2)N2CCN(Cc3ccccc3)CC2)cc1 (stereo unspecified) | 68.8
* CCCCSCC(=O)c1ccccc1 | 91.9
* COc1ccc(-c2cn(-c3ccc(Cl)cc3)c(SCC(=O)c3ccc([N+](=O)[O-])cc3)n2)cc1 | 93.8
* N=C(N)c1ccc(-c2ccc(-c3ccc(Cl)cc3Cl)s2)cc1F | -26.1
* COC(=O)c1ccc2c(c1)c1c(C)c3ccncc3c(C)c1n2C | 30.4
* O=C1C(Cl)=C(NCCN2CCOCC2)C(=O)c2ncccc21 | 5.23
* Oc1c(Cl)cc(Cl)c2ccc(Cn3cc(-c4cccc(C(F)(F)F)c4)nn3)nc12 | 6.72
* O=C(O)c1cn(C2CC2)c2cc(N3CCN(C(=O)N/N=C/c4ccccc4)CC3)c(F)cc2c1=O | 96.9
* CCOc1ccc(/C=N\N=C\c2ccc(OCC)cc2)cc1 | 118
* Cc1cc(N2CCN(C)CC2)nc(NCc2cc(Nc3ccnc4cc(Cl)ccc34)ccc2F)n1 | -4.6
* O=C(CBr)CN1C(=O)c2ccccc2C1=O | 111
* CCCCCCCCCCCCCCCCCCOc1ccccc1CC(=O)OCC[N+]1(C)CCOCC1 | 30.1
* CCOC(=O)c1c2c(n3ccccc13)C(=O)c1ncccc1C2=O | 32.1
* COc1cccc(/C=C2\COc3ccc(O)cc3C2=O)c1 | -0.603
* CC12CCC(/C(=C/NNc3ccc([N+](=O)[O-])cc3[N+](=O)[O-])C1=O)C2(C)C (stereo unspecified) | 47.4
* CCN=C1C=CC(=C(c2ccc(N(C)C)cc2)c2ccc(N(C)C)cc2)c2ccccc21 | 9.37
* Cc1ccc2[nH]c(-c3ccc(S(C)(=O)=O)cc3)c(/C=N/N=C(N)N)c2c1 | 37.2
* Cc1cc(N2CCCCC2)nc(N2CCN(CC(=O)Nc3ccc4c(ccn4Cc4ccccc4)c3)CC2)n1 | 64.5
* CN1CCN(CCCOC(=O)c2c3c(n4ccccc24)C(=O)c2ncccc2C3=O)CC1 | -16.3
* Cc1cc(C)cc(Nc2ccc([N+](=O)[O-])c(NCCN3CCOCC3)n2)c1 | 5.33
* COCC[C@H]1CCC/C=C/[C@@H]2C[C@H](O)C[C@H]2[C@H](O)/C=C/C(=O)O1 | 17.6
* COc1ccc2c(c1)c(-c1nonc1-c1c[nH]c3ccc(Br)cc13)cn2C | 33.5
* COC(=O)c1c2c(n3ccc(C)cc13)C(=O)c1ccccc1C2=O | 46.8
* CCCCCCOC(=O)CC1=C(C)/C(=C/c2[nH]c(-c3ccc[nH]3)cc2OC)N=C1C | -22.5
* COc1ccc(C(C)=O)cc1S(N)(=O)=O | 96.8
* CN1CCN(CCCOc2ccc3ncnc(Nc4ccc(Oc5cccc(F)c5)c(Cl)c4)c3c2)CC1 | -6.61
* COc1cc2c(c(OC)c1OC)C(=O)N[C@@H]1[C@@H](O)[C@@H](O)[C@H](O)C[C@@H]21 | 104
* CCN(CC)S(=O)(=O)c1ccc(S(=O)(=O)N2CCC[C@@H](C(=O)N3CCN(C(=O)OC(C)(C)C)CC3)C2)cc1 | 66.9
* CCNC(=O)Oc1ccc(/C(=C(/C)Cc2ccc(OC)cc2)c2ccc(OCCN3CCCC3)cc2)cc1 | 45.8
* Nc1c(C(=O)Nc2cccc3ncccc23)sc2nc3c(cc12)C(=O)CCC3 | 30.5
* FC(F)(F)c1[nH]ncc1-c1nc2c(N3CCCCC3)cc3[nH]ncc3c2c2c1CCCC2 | 4.61
* O=C(Cn1nnc2ccccc21)Nc1ccc(-c2nc3ccccc3s2)cc1 | 69.7
* COC1=CC(c2ccc[nH]2)=N/C1=C\c1[nH]c(C)c(CC(=O)OCc2ccccc2)c1C | 4.82
* O=S(=O)(c1ccccc1)N1CCCN(c2nc(-c3ccccc3)nc3nc(-c4ccccc4)oc23)CC1 | 105
* O=C(NCc1ccc2c(c1)OCO2)NCC1CCCC(CNC(=O)NCc2ccc3c(c2)OCO3)C1 (stereo unspecified) | 85.1
* CCOC(=O)c1c(NC(=O)CSc2n[nH]c3nc4ccccc4n23)sc(CC)c1C | 121
* CCOC(=O)NN1CC(O)=C(c2nc(-c3ccc(Br)cc3)cs2)C1=N | 86.2

====

- Test system: RXF 393 renal
- method-summary: NCI-60 one-dose screen, 48 h (100 = growth as untreated, 0 = no growth, -100 = all killed)
- details: 10 µM unless noted
This is part of a sample that, as a whole, favours compounds with a hit. Of some 83,000 tested, about 20% had one in any assay.
Listing: growth of selected compounds
endpoint: growth (%)

- CC(=O)Nc1c(Cl)cc(Cl)c2c1Cc1cc([N+](=O)[O-])ccc1-2: 85.3
- CC1(C)CC[C@]2(C(=O)N3CCOCC3)CC[C@]3(C)C(=CC[C@@H]4[C@@]5(C)C/C(=C/c6ccncc6)C(=O)C(C)(C)[C@@H]5CC[C@]43C)[C@@H]2C1: -36.8
- O=C(CCCCCCCCC(=O)N/N=C\c1cc(Cl)ccc1O)N/N=C\c1cc(Cl)ccc1O: 46.7
- COc1ccc(-c2ccc(-c3ccc(C(=N)N)cn3)s2)cc1: 97.8
- CCOc1ccc(NC(=O)c2cc(OC)c(OC)c(OC)c2)cc1: 39.8
- CN1CCN(Cc2ccc(NC(=O)c3cncc(C#Cc4cncc5ncccc45)c3)cc2C(F)(F)F)CC1: 8.21
- COc1cc(/C=C\c2cc(/C=C\c3ccc(O)c(OC)c3)n(C(=O)CNc3ccc(Cl)cc3)n2)ccc1O: 3.29
- COc1cc(/C=C2\CN(S(=O)(=O)c3ccc(C)cc3)C/C(=C\c3cc(CN4CCCCC4)c(O)c(OC)c3)C2=O)cc(CN2CCCCC2)c1O: -72.1

====

Listing: growth of selected molecules
- Tested on: HOP-62 NSCLC
- method-summary: NCI-60 one-dose screen, 48 h (100 = growth as untreated, 0 = no growth, -100 = all killed)
- details: 10 µM unless noted
Compounds without any hit were thinned out: in the full panel of roughly 83,000, 20% have a hit.
endpoint: growth (%)

* CC12CCC(/C(=C/NNc3ccc([N+](=O)[O-])cc3[N+](=O)[O-])C1=O)C2(C)C (stereo not given) | 100
* C/C(=N\O)C(=O)NCCCCCC(=O)Nc1ccccc1 | 102
* CC(C)CCSc1nc(Nc2ccccc2)c(C#N)c(-c2ccccc2)n1 | 19.7
* CCC(CC)(N(CC(=O)O)CC(=O)O)C(CC)(CC)N(CC(=O)O)CC(=O)O | 103
* Cc1ccc(/C=C/C(=O)c2ccc(NC(=O)CSc3nc4c([nH]3)c(=O)n(C)c(=O)n4C)cc2)c(C)c1 | 20.4

====

- System: ACHN renal
- method-summary: NCI-60 one-dose screen, 48 h (100 = growth as untreated, 0 = no growth, -100 = all killed)
- details: 10 µM unless noted
- Method: Growth inhibition of the ACHN human tumor cell line is measured as a screen for anti-cancer activity. Cells are grown in 96 well plates and exposed to the test compound for 48 hours. Compounds are tested at a single concentration, which is 10^-5 M for most compounds. The reported endpoint is percent growth (GI% or GIPRCNT), where numbers from 0 - 100% represent growth inhibition, and numbers from -100% - 0 represent cell death. For example, a value of 40 represents 60% growth inhibition. […]
The panel holds about 83,000 compounds, 20% with a hit somewhere; the sample as a whole holds those more often.
Answer not satisfied if growth is under 60%, and satisfied if it is 60% or more.

- C/C(=C(\c1ccc(OCCN2CCCCCC2)cc1)c1ccc(OC(=O)Cc2ccccc2)cc1)c1ccc(Cl)cc1: satisfied
- N/C(=N\c1nc2ccccc2s1)NC(=NC1CCCCC1)NC1CCCCC1: not satisfied
- Cc1ccc(Nc2nc(-c3ccc(F)cc3)c(C#N)c(=O)n2C)cc1: satisfied
- CCCCCCCCn1ccc2cc(NC(=O)Cn3cc(CN4CCC(C)CC4)nn3)ccc21: not satisfied
- O=C(CCCCCCN1CC(=O)N2[C@@H](C3CCCCC3)c3[nH]c4ccccc4c3C[C@H]2C1=O)NO: satisfied
